The reported numbers originate from ChEMBL document CHEMBL5346940.

# System: NIH3T3
# test: Antiproliferative activity against mouse 3T3 cells assessed as reduction in cell viability at 100 uM measured for 48 hrs by MTT assay relative to control
# Type: toxicity, cell-based
# experimental_conditions: nih3t3, 48 h
Mark True for Activity under 40%, False if at or over.

{"sample_smiles": "CCn1c(SCC(=O)Nc2ccc(/C(C)=N/O)cc2)nc2c([nH]c3ccccc32)c1=O", "classification": "True"}
{"sample_smiles": "O=C(CCCCCSc1nc2c([nH]c3ccccc32)c(=O)[nH]1)NO", "classification": "False"}
{"sample_smiles": "CCn1c(SCCC(=O)NO)nc2c([nH]c3ccccc32)c1=O", "classification": "False"}
{"sample_smiles": "CCn1c(SCCCCCC(=O)NO)nc2c([nH]c3ccccc32)c1=O", "classification": "False"}
{"sample_smiles": "CCn1c(SCCCCCCCC(=O)NO)nc2c([nH]c3ccccc32)c1=O", "classification": "False"}
{"sample_smiles": "O=C(CCCSc1nc2c([nH]c3ccccc32)c(=O)[nH]1)NO", "classification": "True"}
{"sample_smiles": "O=C(CCSc1nc2c([nH]c3ccccc32)c(=O)[nH]1)NO", "classification": "True"}
{"sample_smiles": "C/C(=N\\O)c1ccc(NC(=O)CSc2nc3[nH]ncc3c(=O)[nH]2)cc1", "classification": "False"}
{"sample_smiles": "O=C(CCCCSc1nc2c([nH]c3ccccc32)c(=O)[nH]1)NO", "classification": "True"}
{"sample_smiles": "CCn1c(SCCCC(=O)NO)nc2c([nH]c3ccccc32)c1=O", "classification": "False"}
{"sample_smiles": "O=C(CCCCCCSc1nc2c([nH]c3ccccc32)c(=O)[nH]1)NO", "classification": "False"}
{"sample_smiles": "C/C(=N/O)c1ccc(NC(=O)CCCSc2nc3[nH]ncc3c(=O)[nH]2)cc1", "classification": "True"}
{"sample_smiles": "CCn1c(SCCCCCCC(=O)NO)nc2c([nH]c3ccccc32)c1=O", "classification": "False"}
{"sample_smiles": "O=C(CSc1nc2c([nH]c3ccccc32)c(=O)[nH]1)NO", "classification": "True"}
{"sample_smiles": "O=C(CCCCSc1nc2[nH]ncc2c(=O)[nH]1)NO", "classification": "True"}
{"sample_smiles": "CCn1c(SC/C=C/C(=O)NO)nc2c([nH]c3ccccc32)c1=O", "classification": "False"}
{"sample_smiles": "CC[C@@]1(O)C(=O)OCc2c1cc1n(c2=O)Cc2cc3ccccc3nc2-1", "classification": "True"}
{"sample_smiles": "O=C(CCCSc1nc2[nH]ncc2c(=O)[nH]1)NO", "classification": "True"}
{"sample_smiles": "CCn1c(SCCCCC(=O)NO)nc2c([nH]c3ccccc32)c1=O", "classification": "True"}

###

# Test system: MCF7
# test: Induction of apoptosis in human MCF7 cells assessed as viable cells at 10 uM incubated for 48 hrs by AnnexinV-FITC/propidium iodide staining based flow cytometry analysis (reference value: 99.2 %)
# Type: functional
# experimental_conditions: read-out: Activity
parameter_measured: viability at 10 µM (%)

{"molecule": "O=C(CCCCSc1nc2c([nH]c3ccccc32)c(=O)[nH]1)NO", "unit_label": "%", "measured_value": 60.6}
{"molecule": "CCn1c(SCCCCC(=O)NO)nc2c([nH]c3ccccc32)c1=O", "unit_label": "%", "measured_value": 78.7}
{"molecule": "O=C(CCCCCCC(=O)Nc1ccccc1)NO [VORINOSTAT]", "unit_label": "%", "measured_value": 44.7}
{"molecule": "COc1cc([C@@H]2c3cc4c(cc3[C@@H](O[C@@H]3O[C@@H]5CO[C@@H](C)O[C@H]5[C@H](O)[C@H]3O)[C@H]3COC(=O)[C@H]23)OCO4)cc(OC)c1O [ETOPOSIDE]", "unit_label": "%", "measured_value": 92.7}
